Assay: gradient 5% acetonitrile 3 min, to 50% in 2 min, to 85% in 15 min, held 3 min, 100 µL/min
Details: column: Zorbax Extend-C18 2.1 x 50 mm; eluents: water / acetonitrile, 0.1% formic acid
quantityKind: RP-LC retention time (s)

Cc1nc(-n2c(C)ccc2C)sc1C(=O)NC1CC1 ... 850
COc1ccc2c(c1)C1(CCN(C(=O)Cc3ccccc3C)C1)C(=O)N2C (stereo not given) ... 826
COc1ccc(N2CC(c3nc(-c4ccc(Br)cc4)no3)CC2=O)cc1OC (stereo not given) ... 977

(I) Cc1cc(N2CCCCC2)nc(NCCNS(=O)(=O)N(C)C)n1
(II) COc1ccc(N2CC(c3noc(-c4cc(Cl)ccc4F)n3)CC2=O)cc1 (stereo not given)
### Prompt Identify the entry with the larger RP-LC retention time. Options: I and II Label of pick, please.
### Response II

----------
Experiment: gradient 5% acetonitrile 3 min, to 50% in 2 min, to 85% in 15 min, held 3 min, 100 µL/min
Settings: column: Zorbax Extend-C18 2.1 x 50 mm; eluents: water / acetonitrile, 0.1% formic acid
quantityKind: RP-LC retention time (s)

CCc1noc(NC(C)=O)c1-c1ccc(C)c(S(=O)(=O)N2CCc3ccccc3C2)c1 ... 956
COc1ccc(C(=O)NC2CCN(c3cc(-c4ccc(OC)cc4)[nH]n3)C2)cc1 (centres undefined) ... 706
CCS(=O)(=O)N1CC(=O)N(c2cccc(C)c2C)C(C)(C(=O)NCc2ccccc2)C1 (centres undefined) ... 807
COc1cc(NC(=O)Cn2cnc3nc(N4CCCC4)ncc3c2=O)cc(OC)c1 ... 703
Cc1cc(C)c2c(SC(C)C)nc(N)nc2n1 ... 676
O=C(Nc1nc(-c2ccccc2)cs1)c1ccccc1[N+](=O)[O-] ... 947
Cc1noc(C)c1S(=O)(=O)N1CCC2(CC1)CC(OCc1ccccc1)CCO2 (centres undefined) ... 1070
O=C(CN1CCC2(CC1)N=C(c1ccccc1)C(=O)N2)Nc1ccc(Br)cc1F ... 685
C=CCNC(=O)N1CCCN(C2=NS(=O)(=O)C(c3ccc(Cl)cc3)=C2C)CC1 ... 761

----------
Assay: gradient 5% acetonitrile 3 min, to 50% in 2 min, to 85% in 15 min, held 3 min, 100 µL/min
Details: column: Zorbax Extend-C18 2.1 x 50 mm; eluents: water / acetonitrile, 0.1% formic acid
quantityKind: RP-LC retention time (s)

# example entries with known answers
CCc1ccc2c(c1)cc(S(=O)(=O)c1ccccc1)c(=O)n2CC(=O)NC1CCCCC1 ... 1030
COc1ccc(OC)c(NC(=O)N2CCN(c3nc4ccccc4nc3C(F)(F)F)CC2)c1 ... 1070
Cc1ccsc1CN1CCc2oc(C)c(C(=O)N3CCOCC3)c2C1 ... 536
CCOC(=O)c1ccc(NC(=O)c2ccc(-n3nncc3C)cc2)cc1 ... 757
O=C(Cn1ccc2ccccc21)NCCCC(=O)Nc1cccc2cccnc12 ... 786
O=C(Nc1ccc(N2CCN(c3ccccc3)C2=O)nc1)c1ccc(Br)o1 ... 892
O=C(NCc1csc(-c2ccccc2)n1)C1CCN(S(=O)(=O)c2cccc(F)c2)CC1 ... 912
Cc1nc(N(C)C)cc(N2CCN(C(=O)c3cccc(Br)c3)CC2)n1 ... 656

(1) COCCn1cc(CCNC(=O)Nc2ccc(Cl)cc2F)c2cccnc21
(2) CC(C)NC(=O)N1CCNC(=O)C1
### Prompt Identify the entry with the larger RP-LC retention time. Options: 1 and 2 Label of pick, please.
### Response 1
(1: 806 s, 2: 540 s)

(a) Cc1csc(-c2ccc(N3CCN(C(=O)c4cc(F)ccc4Cl)CC3)nc2)n1
(b) CC(C)n1cnc2c(-c3ccccc3)cn(CC(=O)NCc3ccco3)c2c1=O
(c) CCOc1nc2ccccc2nc1N1CCCC(C(=O)Nc2ccc(Br)cc2F)C1 (stereo not drawn)
### Prompt # desc sort on RP-LC retention time across 3 compounds Use the labels to give the ranking in the order requested.
### Response c, a, b
(c: 1390 s, a: 910 s, b: 592 s)

(A) COc1ccccc1NC(=O)N1CCC2(CC1)NC(=O)c1ccc(Cl)cc1N2C
(B) Fc1ccc(CN2CCC(Cc3nc(-c4ccncc4)n[nH]3)C2)c(F)c1 (stereo not drawn)
(C) COc1nc2ccccc2nc1N1CCCC(C(=O)Nc2ccc(Br)cc2)C1 (stereo not drawn)
### Prompt # desc sort on RP-LC retention time across 3 compounds Use the labels to give the ranking in the order requested.
### Response C, A, B

(P) Cc1ccc(C)c(NC(=O)Cn2c(=O)cc(-c3nc(C)no3)c3ccccc32)c1
(Q) COc1ccc(-c2nnc(N3CCC(C(=O)NC(C)c4ccccn4)CC3)o2)cc1 (stereo not drawn)
### Prompt // returns P or Q , whichever has the lower RP-LC retention time Label of pick, please.
### Response Q
(Q: 621 s, P: 910 s)

(1) COc1cccc(-c2ccc(=O)n(Cc3nc(-c4ccccc4Br)no3)n2)c1
(2) COC(=O)Nc1nc2ccc(Br)cc2[nH]1
### Prompt Identify the entry with the larger RP-LC retention time. Options: 1 and 2 Label of pick, please.
### Response 1

(P) O=C1CC(c2noc(CCc3ccccc3)n2)CN1c1ccccc1 (stereo not drawn)
(Q) Cc1ccc(CNC(=O)C(=O)NCC(c2ccc3c(c2)CCCN3C)N2CCOCC2)cc1 (stereo not drawn)
### Prompt Identify the entry with the larger RP-LC retention time. Options: P and Q Label of pick, please.
### Response P

(I) Cc1ccc(-c2noc(-c3cccc(S(=O)(=O)N4CCN(c5ccccn5)CC4)c3)n2)cc1
(II) COc1ccccc1C(=O)N1CCCC(c2nnc(C)s2)C1 (stereo not drawn)
### Prompt Identify the entry with the larger RP-LC retention time. Options: I and II Label of pick, please.
### Response I
(I: 995 s, II: 646 s)

(1) Cn1nc(-c2nc(-c3ccccc3F)no2)c2c1CCN(C(=O)C1CCCO1)C2 (stereo not drawn)
(2) COC(=O)c1ccccc1Nc1c(-c2ccc(Cl)cc2)nc2cnccn12
### Prompt Identify the entry with the larger RP-LC retention time. Options: 1 and 2 Label of pick, please.
### Response 2
(2: 1130 s, 1: 770 s)
